assay: Cytotoxicity activity against human HepG2 cells assessed by CellTiter-Glo luminescent cell viability assay.; type: toxicity, cell-based; design: assay stage confirmatory assay, source tissue liver; settings: HepG2 cells, read-out: IC50 relative
Activity calls are given as the source filed them. No rule for the calls is given here.
Classes to choose from: yes for active, no for inactive

Known results for molecules:
molecule=COCCNCc1ccc(-c2cc3nccc(Oc4ccc(NC(=O)C5(C(=O)Nc6ccc(F)cc6)CC5)cc4F)c3s2)nc1 assigned_category=yes
molecule=Cc1nc(-c2ccccn2)sc1C(=O)Nc1ccccc1O assigned_category=yes

Field: next molecule
Hi team, can someone confirm the assay call for Clc1ccc(CSC(Cn2ccnc2)c2ccc(Cl)cc2Cl)cc1 (configuration not stated) [SULCONAZOLE NITRATE] ?
no
